settings: in toluene, 308.15 K
assayMetric: solubility (mole fraction)
Number, no unit, nothing else.

-- ask Retrieve solubility (mole fraction) measured for "COc1cc(Cl)nc(N)n1" and print it.
-- reply 0.00374

###

conditions: in chloroform, 303.15 K
assayMetric: solubility (mole fraction)
Number, no unit, nothing else.

-- ask Retrieve solubility (mole fraction) measured for "COc1cc(Cl)nc(N)n1" and print it.
-- reply 0.00924

###

settings: in ethyl acetate, 288.15 K
assayMetric: solubility (mole fraction)
Number, no unit, nothing else.

-- ask Retrieve solubility (mole fraction) measured for "COc1cc(Cl)nc(N)n1" and print it.
-- reply 0.0105

###

settings: in 1,4-dioxane, 283.15 K
assayMetric: solubility (mole fraction)
Number, no unit, nothing else.

-- ask Retrieve solubility (mole fraction) measured for "COc1cc(Cl)nc(N)n1" and print it.
-- reply 0.0229

###

conditions: in isopropanol, 303.15 K
assayMetric: solubility (mole fraction)
Number, no unit, nothing else.

-- ask Retrieve solubility (mole fraction) measured for "COc1cc(Cl)nc(N)n1" and print it.
-- reply 0.0046

###

details: in 1,4-dioxane, 303.15 K
assayMetric: solubility (mole fraction)

-- ask Retrieve solubility (mole fraction) measured for "COc1cc(Cl)nc(N)n1" and print it.
-- reply 0.0422

###

conditions: in ethanol, 288.15 K
assayMetric: solubility (mole fraction)
Number, no unit, nothing else.

-- ask Retrieve solubility (mole fraction) measured for "COc1cc(Cl)nc(N)n1" and print it.
-- reply 0.00259

###

details: in chloroform, 298.15 K
assayMetric: solubility (mole fraction)
Number, no unit, nothing else.

-- ask Retrieve solubility (mole fraction) measured for "COc1cc(Cl)nc(N)n1" and print it.
-- reply 0.00758

###

settings: in toluene, 323.15 K
assayMetric: solubility (mole fraction)
Number, no unit, nothing else.

-- ask Retrieve solubility (mole fraction) measured for "COc1cc(Cl)nc(N)n1" and print it.
-- reply 0.00703

###

conditions: in chloroform, 318.15 K
assayMetric: solubility (mole fraction)
Number, no unit, nothing else.

-- ask Retrieve solubility (mole fraction) measured for "COc1cc(Cl)nc(N)n1" and print it.
-- reply 0.0166

###

conditions: in methanol, 313.15 K
assayMetric: solubility (mole fraction)
Number, no unit, nothing else.

-- ask Retrieve solubility (mole fraction) measured for "COc1cc(Cl)nc(N)n1" and print it.
-- reply 0.00675

###

details: in n-propanol, 283.15 K
assayMetric: solubility (mole fraction)
Number, no unit, nothing else.

-- ask Retrieve solubility (mole fraction) measured for "COc1cc(Cl)nc(N)n1" and print it.
-- reply 0.00201

###

settings: in 1,4-dioxane, 298.15 K
assayMetric: solubility (mole fraction)
Number, no unit, nothing else.

-- ask Retrieve solubility (mole fraction) measured for "COc1cc(Cl)nc(N)n1" and print it.
-- reply 0.0367

###

details: in acetonitrile, 278.15 K
assayMetric: solubility (mole fraction)

-- ask Retrieve solubility (mole fraction) measured for "COc1cc(Cl)nc(N)n1" and print it.
-- reply 0.00174

###

details: in DMF, 288.15 K
assayMetric: solubility (mole fraction)
Number, no unit, nothing else.

-- ask Retrieve solubility (mole fraction) measured for "COc1cc(Cl)nc(N)n1" and print it.
-- reply 0.0648

###

conditions: in acetone, 293.15 K
assayMetric: solubility (mole fraction)
Number, no unit, nothing else.

-- ask Retrieve solubility (mole fraction) measured for "COc1cc(Cl)nc(N)n1" and print it.
-- reply 0.0174
